# System: Staph. aureus SS 08
# Format: cell-based
# testConditions: Brain Heart Infusion, estolate and RV11-RV15 previously hydrolized, unit assumed
endpointLabel: MIC (µg/mL)

molecule	targetSystem	observed
CCC(=O)O[C@H]1[C@H](O[C@@H]2[C@@H](C)[C@H](O[C@H]3C[C@@](C)(OC)[C@@H](O)[C@H](C)O3)[C@@H](C)C(=O)O[C@H](CC)[C@@](C)(O)[C@H](O)[C@@H](C)C(=O)[C@H](C)C[C@@]2(C)O)O[C@H](C)C[C@@H]1N(C)C [RV13]	Staph. aureus SS 08	0.05

* * *

Below is a list of entries, each paired with its recorded MIC value.
# Tested on: Staph. albus SS 03
# Type: cell-based
# testConditions: Brain Heart Infusion, estolate and RV11-RV15 previously hydrolized, unit assumed

compound	targetSystem	MIC, µg/mL
CC[C@H]1OC(=O)[C@H](C)[C@@H](O[C@H]2C[C@@](C)(OC)[C@@H](O)[C@H](C)O2)[C@H](C)[C@@H](O[C@@H]2O[C@H](C)C[C@H](N(C)C)[C@H]2O)[C@](C)(O)C[C@@H](C)C(=O)[C@H](C)[C@@H](O)[C@]1(C)O [RV01, erythromycin alpha-mercaptosuccinate]	Staph. albus SS 03	0.1
CC[C@H]1OC(=O)[C@H](C)[C@@H](O[C@H]2C[C@@](C)(OC)[C@@H](O)[C@H](C)O2)[C@H](C)[C@@H](O[C@@H]2O[C@H](C)C[C@H](N(C)C)[C@H]2O)[C@](C)(O)C[C@@H](C)C(=O)[C@H](C)[C@@H](O)[C@]1(C)O [RV03, erythromycyn-thiazolidin-carboxylate]	Staph. albus SS 03	0.05
CC[C@H]1OC(=O)[C@H](C)[C@@H](O[C@H]2C[C@@](C)(OC)[C@@H](O)[C@H](C)O2)[C@H](C)[C@@H](O[C@@H]2O[C@H](C)C[C@H](N(C)C)[C@H]2O)[C@](C)(O)C[C@@H](C)C(=O)[C@H](C)[C@@H](O)[C@]1(C)O [RV05, erythromycin-N-acetylcysteinate]	Staph. albus SS 03	0.05
CCC(=O)O[C@H]1[C@H](O[C@@H]2[C@@H](C)[C@H](O[C@H]3C[C@@](C)(OC)[C@@H](O)[C@H](C)O3)[C@@H](C)C(=O)O[C@H](CC)[C@@](C)(O)[C@H](O)[C@@H](C)C(=O)[C@H](C)C[C@@]2(C)O)O[C@H](C)C[C@@H]1N(C)C [RV11]	Staph. albus SS 03	0.05
CC[C@H]1OC(=O)[C@H](C)[C@@H](O[C@H]2C[C@@](C)(OC)[C@@H](O)[C@H](C)O2)[C@H](C)[C@@H](O[C@@H]2O[C@H](C)C[C@H](N(C)C)[C@H]2O)[C@](C)(O)C[C@@H](C)C(=O)[C@H](C)[C@@H](O)[C@]1(C)O [RV04, erythromycin-S-carboxymethylcysteinate]	Staph. albus SS 03	0.1
CCC(=O)O[C@H]1[C@H](O[C@@H]2[C@@H](C)[C@H](O[C@H]3C[C@@](C)(OC)[C@@H](O)[C@H](C)O3)[C@@H](C)C(=O)O[C@H](CC)[C@@](C)(O)[C@H](O)[C@@H](C)C(=O)[C@H](C)C[C@@]2(C)O)O[C@H](C)C[C@@H]1N(C)C [erythromycin estolate, reference compound]	Staph. albus SS 03	0.05
CCC(=O)O[C@H]1[C@H](O[C@@H]2[C@@H](C)[C@H](O[C@H]3C[C@@](C)(OC)[C@@H](O)[C@H](C)O3)[C@@H](C)C(=O)O[C@H](CC)[C@@](C)(O)[C@H](O)[C@@H](C)C(=O)[C@H](C)C[C@@]2(C)O)O[C@H](C)C[C@@H]1N(C)C [RV15]	Staph. albus SS 03	0.25
CC[C@H]1OC(=O)[C@H](C)[C@@H](O[C@H]2C[C@@](C)(OC)[C@@H](O)[C@H](C)O2)[C@H](C)[C@@H](O[C@@H]2O[C@H](C)C[C@H](N(C)C)[C@H]2O)[C@](C)(O)C[C@@H](C)C(=O)[C@H](C)[C@@H](O)[C@]1(C)O [erythromycin]	Staph. albus SS 03	0.05
CCC(=O)O[C@H]1[C@H](O[C@@H]2[C@@H](C)[C@H](O[C@H]3C[C@@](C)(OC)[C@@H](O)[C@H](C)O3)[C@@H](C)C(=O)O[C@H](CC)[C@@](C)(O)[C@H](O)[C@@H](C)C(=O)[C@H](C)C[C@@]2(C)O)O[C@H](C)C[C@@H]1N(C)C [RV14]	Staph. albus SS 03	0.1
CCC(=O)O[C@H]1[C@H](O[C@@H]2[C@@H](C)[C@H](O[C@H]3C[C@@](C)(OC)[C@@H](O)[C@H](C)O3)[C@@H](C)C(=O)O[C@H](CC)[C@@](C)(O)[C@H](O)[C@@H](C)C(=O)[C@H](C)C[C@@]2(C)O)O[C@H](C)C[C@@H]1N(C)C [RV13]	Staph. albus SS 03	0.05

* * *

# protocol: Hematic levels in the healthy volunteer
# Assay type: in vivo, healthy volunteers
# testConditions: human, blood, po, 500 mg, 2 hours, 500 mg of erythromycin, average

compound	unit	concentration at 2 h
CCC(=O)O[C@H]1[C@H](O[C@@H]2[C@@H](C)[C@H](O[C@H]3C[C@@](C)(OC)[C@@H](O)[C@H](C)O3)[C@@H](C)C(=O)O[C@H](CC)[C@@](C)(O)[C@H](O)[C@@H](C)C(=O)[C@H](C)C[C@@]2(C)O)O[C@H](C)C[C@@H]1N(C)C [erythromycin estolate, reference compound]	ng/mL	2100

* * *

# testConditions: in vivo, po, 100 mg/kg, 6 h
This section presents compounds with their documented Hematic levels in the rat values.

compound	Hematic levels in the rat (µg/mL)
CCC(=O)O[C@H]1[C@H](O[C@@H]2[C@@H](C)[C@H](O[C@H]3C[C@@](C)(OC)[C@@H](O)[C@H](C)O3)[C@@H](C)C(=O)O[C@H](CC)[C@@](C)(O)[C@H](O)[C@@H](C)C(=O)[C@H](C)C[C@@]2(C)O)O[C@H](C)C[C@@H]1N(C)C [RV14]	0.07
CCC(=O)O[C@H]1[C@H](O[C@@H]2[C@@H](C)[C@H](O[C@H]3C[C@@](C)(OC)[C@@H](O)[C@H](C)O3)[C@@H](C)C(=O)O[C@H](CC)[C@@](C)(O)[C@H](O)[C@@H](C)C(=O)[C@H](C)C[C@@]2(C)O)O[C@H](C)C[C@@H]1N(C)C [RV11]	0.08
CCC(=O)O[C@H]1[C@H](O[C@@H]2[C@@H](C)[C@H](O[C@H]3C[C@@](C)(OC)[C@@H](O)[C@H](C)O3)[C@@H](C)C(=O)O[C@H](CC)[C@@](C)(O)[C@H](O)[C@@H](C)C(=O)[C@H](C)C[C@@]2(C)O)O[C@H](C)C[C@@H]1N(C)C [erythromycin estolate, reference compound]	0.04
CCC(=O)O[C@H]1[C@H](O[C@@H]2[C@@H](C)[C@H](O[C@H]3C[C@@](C)(OC)[C@@H](O)[C@H](C)O3)[C@@H](C)C(=O)O[C@H](CC)[C@@](C)(O)[C@H](O)[C@@H](C)C(=O)[C@H](C)C[C@@]2(C)O)O[C@H](C)C[C@@H]1N(C)C [RV13]	0.12
CCC(=O)O[C@H]1[C@H](O[C@@H]2[C@@H](C)[C@H](O[C@H]3C[C@@](C)(OC)[C@@H](O)[C@H](C)O3)[C@@H](C)C(=O)O[C@H](CC)[C@@](C)(O)[C@H](O)[C@@H](C)C(=O)[C@H](C)C[C@@]2(C)O)O[C@H](C)C[C@@H]1N(C)C [RV15]	0.03

* * *

# protocol: Hematic levels in the rat (absorption by oral route)
# testConditions: rat, blood, po, 100 mg/kg, Hematic levels in the rat, 0.30 hours, 100 mg/kg as erythromycin, average

querySmiles	concentration at 0.3 h [ng/mL]
CC[C@H]1OC(=O)[C@H](C)[C@@H](O[C@H]2C[C@@](C)(OC)[C@@H](O)[C@H](C)O2)[C@H](C)[C@@H](O[C@@H]2O[C@H](C)C[C@H](N(C)C)[C@H]2O)[C@](C)(O)C[C@@H](C)C(=O)[C@H](C)[C@@H](O)[C@]1(C)O	710

* * *

# protocol: Hematic levels in the rat (absorption by oral route)
# testConditions: rat, blood, po, 100 mg/kg, Hematic levels in the rat, 2 hours, 100 mg/kg as erythromycin, average

compound	concentration at 2 h / ng/mL
CC[C@H]1OC(=O)[C@H](C)[C@@H](O[C@H]2C[C@@](C)(OC)[C@@H](O)[C@H](C)O2)[C@H](C)[C@@H](O[C@@H]2O[C@H](C)C[C@H](N(C)C)[C@H]2O)[C@](C)(O)C[C@@H](C)C(=O)[C@H](C)[C@@H](O)[C@]1(C)O [RV01, erythromycin alpha-mercaptosuccinate]	1180

All figures here come from patent US4476120A.
